Test system: RARb homodimer (NR concentration 270 nM)
measurement.protocol: PBM binding z-score (relative to random genomic background probes); higher = stronger binding; sequences stand for … in GC…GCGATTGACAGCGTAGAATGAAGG
I would appreciate it if you labelled entries criterion met when PBM binding z-score is 3 or higher, otherwise criterion not met.

Examples from the recorded data:
input.sequence	measurement.target	discrete.label
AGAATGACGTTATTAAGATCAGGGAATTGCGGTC	RARb homodimer (NR concentration 270 nM)	criterion not met
AGAATGAGGTTATACGTAGATCAGGCAAGAAAGT	RARb homodimer (NR concentration 270 nM)	criterion not met
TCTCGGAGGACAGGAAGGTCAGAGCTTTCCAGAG	RARb homodimer (NR concentration 270 nM)	criterion met
ACTAGTTGGTCAGCTGAGGTCACAGACAATTCGG	RARb homodimer (NR concentration 270 nM)	criterion met
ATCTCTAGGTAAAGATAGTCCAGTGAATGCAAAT	RARb homodimer (NR concentration 270 nM)	criterion not met

# check: PBM binding z-score of TCTATTAGTTGATTAGGGCACCCGAAACAGCGGA is greater than or equal to 3
criterion not met

====

System: RXRa homodimer (NR concentration 180 nM)
measurement.protocol: PBM binding z-score (relative to random genomic background probes); higher = stronger binding; sequences stand for … in GC…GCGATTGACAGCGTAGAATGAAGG
property.measured: PBM binding z-score
Answers are plain numbers.

input.sequence	PBM binding z-score
GCATATATGTAATACAAGGTGAAAGTCCGATTGT	0.52

Hey, can you go through the list below and give me PBM binding z-score for every item?
1. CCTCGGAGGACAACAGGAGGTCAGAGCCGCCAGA
2. CCCAGTTGGTCAGGAGGTCACACACCGGATATGA
3. CGAACTAAGTCAGAACAGGACAGTGAAGGATGAT
4. CGTTAAAGTTCAAGGTAACGTAACAGAAAGCAGC

[1.71, 4.6, 0.167, 3.98]

====

System: RARg:RXRa (NR concentration 270 nM, RXRa partner concentration 90 nM)
measurement.protocol: PBM binding z-score (relative to random genomic background probes); higher = stronger binding; sequences stand for … in GC…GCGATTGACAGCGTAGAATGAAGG
Answer each item with its documented PBM binding z-score.
Numbers only.

Previously resolved entries follow.
input.sequence	PBM binding z-score
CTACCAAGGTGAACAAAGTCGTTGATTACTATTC	0.623
GATACAGGGTCAAGGCCAGTGTACGCGTATTGAT	5.61
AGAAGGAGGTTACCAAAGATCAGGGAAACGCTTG	1.66
CCTACTGGGGCAAAAAGGTCATTGATGCCGATAA	4.99
CTGACTGGGGCAAAGGTTACCATACTCAGTACGA	3.83

Hey, can you go through the list below and give me PBM binding z-score for every item?
1. TCATATAGGTAATACAGGTGAAAGTAGGCATCTA
2. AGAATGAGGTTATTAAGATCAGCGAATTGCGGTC
3. GGAGCGAGGGCATTCGAGTTGATAGCATGGCGAT

1: 0.714; 2: 1.02; 3: 0.849

====

Answer each item with its documented PBM binding z-score.
Tested on: VDR homodimer (NR concentration 270 nM)
measurement.protocol: PBM binding z-score (relative to random genomic background probes); higher = stronger binding; sequences stand for … in GC…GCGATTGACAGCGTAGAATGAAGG
Numbers only.

input.sequence	PBM binding z-score
TAGCCTAGGTCATGGGCCAGTCTACCACGCGAAC	0.0195
TCTGGTAGGTCAGTTGGTCAGCTAACGAGCTGCC	0.292
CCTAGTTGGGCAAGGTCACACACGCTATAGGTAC	2.77
ATCTCTAGGTAACCAAGTTCAGTGCATGCCGAAC	3.1
ATCTCAAGGTAACCAAGTTCAGTGAATGCCGAAC	3.2

Continue with the next sequence.
# input sequence: CCTACTGGGCCATTAGGTCATTGATATCAACGTT ; wanted: its PBM binding z-score
1.01

Provenance of the data: the supplement of paper PMC6555819
